- assay-remarks: in vivo
- measurement-conditions: mouse, in vivo; mice, intravenous 5 mg/kg; read-out: systemic plasma clearance (CLp)
measurement-name: clearance (mL/min/kg)
# output: bare number, implied unit mL/min/kg

Input CC(C)(C)C(=O)O[C@@H]1[C@@H]2[C@H]3C[C@H](C[C@@H]1N3Cc1ccccn1)CN2C(=O)CC(F)(F)F (relative stereo) . Output clearance: 46.1

---

- assay-remarks: in vivo
- Parameters: species or system mice
- measurement-conditions: mouse, in vivo, sc, Brain, Mean
measurement-name: AUC(0-t) (ng·h/mL)
# output: bare number, implied unit ng·h/mL

Input CC(C)(C)C(=O)O[C@@H]1[C@@H]2[C@H]3C[C@H](C[C@@H]1N3Cc1ccccn1)CN2C(=O)CC(F)(F)F (relative stereo) [Formula 1] . Output AUC(0-t): 790
